System: cultured PBMCs of the allergic donors
Test: ELISPOT of IL-5 or IFNg production by cultured PBMCs of TG allergic donors in response to peptide
Assay type: cell-based, human
Settings: Table 6; PG+ peptides recognized by T cells of grass allergic donors (n=20)
For each of the molecules below, state its No of PG+ & th+ peptides per NTGA.
Give bare numbers.

{"columns": ["molecule", "test value"],
 "data": [
  ["NTGA 53: Phl p wild type sequence, Table 2 (protein, Phleum Pratense) MDRNPVAKNAGKFMTLAGVLDYAKASNISGILIGIEHAAYLATRGLDVVDAVSNALIKSGYDKETKQQVFIQSEDPPVLSAFKKFPKFNRVFEIEFDIRDVSKPSVVEIKEFANAVKLRRSSAAQVDGFYLTGFNAVVERLRDADIQVHVGVLKNEFMSLAFDYWADPMVEIATDTWSVLADGLVTEFPSTAAAYFRSPCSDIKRNMSYTIKPGEPGALVDMAAYGALPPAPPPAPVLEPADVHRQPLPLCPTEPMFRTFRCRLPPKETGKNAEYTANLAADG", 3],
  ["NTGA 26: Phl p wild type sequence, Table 2 (protein, Phleum Pratense) GVFTDKDKAAAHMKGGAKKVVISAPSKDAPMFVVGVNEDKYTSDVNIVSNASCTTNCLAPLAKIINDNFGIVEGLMTTVHSITATQKTVDGPSSKDWRGGRAASFNIIPSSTGAAKAVGKVLPELNGKLTGMSFRVPTVDVSVVDLTVRIEKAASYEDIKKAIKAASEGNLKGIMGYVEEDLVSTDFIGDSRSSIFDAKAGIALNDNFVKLVSWYDNEWGY", 1],
  ["NTGA 86: Phl p wild type sequence, Table 2 (protein, Phleum Pratense) MSTAEATREENVYMAKLAEQAERYEEMVEFMEKVAKTADVGELTVEERNLLSVAYKNVIGARRASWRIISSIEQKEESRGNEAYVASIKEYRTRIETELSKICDGILKLLDSHLVPSATAAESKVFYLKMKGDYHRYLAEFKAGAERKEAAENTLVAYKSAQDIALADLPTTHPIRLGLALNFSVFYYEILNSPDRACNLAKQAFDEAIAELDSLGEESYKDSTLIMQLLRDNLTLWTSDNADEGGDEIKEASKPEGEGH", 1],
  ["NTGA 19: Phl p wild type sequence, Table 2 (protein, Phleum Pratense) GVVATTDAVEACTGVNVAVMVGGFPRKEGMERKDVMSKNVSIYKSQASALEAHAAPNCKVLVVANPANTNALILKEFAPSIPEKNISCLTRLDHNRALGQVSERLNVQVSDVKNVLIWGNHSSSQYPDVNHATVKTSSGEKPVRELVQDDEWLNGPFIATVQQRGAAIIKARKLSSALSAASSACDHIRDWVLGTPEGTFVSMGVYSDGSYGVPAGLIYSFPVTCSGGEWTIVQGLPIDEFSRKKMDATAQELSEEKALAYSCL", 0]
]}

For record NTGA 3: Phl p wild type sequence, Table 2 (protein, Phleum Pratense) MDDHKEHKEKEHTGGNPEVNEEEEEDEEAKRAVLLGPQVPLKEQLELDKDDESLRRWKEQLLGQVDTEQLGETAEPEVKVVDLTILSPDRPDLVLPIPFVADEKGYAFALKDGSTYSFRFSFIVSNNIVSGLKYTNTVWKTGVRVENQKMMLGTFSPQPEPYIYVGEEETTPAGIFARGSYSAKLKFVDDDGKVYLEMSYYFEIRKDWPTGQ the listed No of PG+ & th+ peptides per NTGA is 0
